Test system: Escherichia coli TOP10;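 also: peptides expressed intracellularly from a pBAD plasmid library in pooled LB shake-flask culture, induced with 0.3% L-arabinose, DNA abundance read by NGS, three biological replicates, DESeq2 with apeglm shrinkage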
measurementNotes: shrunken log2 fold change of peptide-encoding DNA abundance (4.5 h post-induction vs induction); higher = less antimicrobial activity (less host growth inhibition)
conditionDetails: time post-induction: 4.5 h; library: site-saturation at positions 5, 18, 19, 20
Use 1 (yes) when the recorded shrunken log2 fold change is no lower than 0.2; use 0 (no) when it is lower.

Query: Can RRIRCRPPRLPRPRPRPPDTPRP be said to have shrunken log2 fold change at or above 0.2?
Response: 1 (yes)

Query: Can RRIRQRPPRLPRPRPRPIKAPRP be said to have shrunken log2 fold change at or above 0.2?
Response: 0 (no)

Query: Can RRIRNRPPRLPRPRPRPQRNPRP be said to have shrunken log2 fold change at or above 0.2?
Response: 0 (no)

Query: Can RRIRARPPRLPRPRPRPFWGPRP be said to have shrunken log2 fold change at or above 0.2?
Response: 0 (no)

Query: Can RRIRMRPPRLPRPRPRPNVEPRP be said to have shrunken log2 fold change at or above 0.2?
Response: 0 (no)

Query: Can RRIRARPPRLPRPRPRPQMDPRP be said to have shrunken log2 fold change at or above 0.2?
Response: 0 (no)

Query: Can RRIRGRPPRLPRPRPRPENAPRP be said to have shrunken log2 fold change at or above 0.2?
Response: 1 (yes)

Query: Can RRIRIRPPRLPRPRPRPQGTPRP be said to have shrunken log2 fold change at or above 0.2?
Response: 0 (no)

Query: Can RRIRLRPPRLPRPRPRPSRKPRP be said to have shrunken log2 fold change at or above 0.2?
Response: 0 (no)

Query: Can RRIRARPPRLPRPRPRPEQIPRP be said to have shrunken log2 fold change at or above 0.2?
Response: 1 (yes)

Query: Can RRIRWRPPRLPRPRPRPLVSPRP be said to have shrunken log2 fold change at or above 0.2?
Response: 1 (yes)

Query: Can RRIRFRPPRLPRPRPRPHVVPRP be said to have shrunken log2 fold change at or above 0.2?
Response: 0 (no)

Query: Can RRIRNRPPRLPRPRPRPVNHPRP be said to have shrunken log2 fold change at or above 0.2?
Response: 0 (no)

Query: Can RRIRWRPPRLPRPRPRPNQRPRP be said to have shrunken log2 fold change at or above 0.2?
Response: 0 (no)

Query: Can RRIRPRPPRLPRPRPRPQMMPRP be said to have shrunken log2 fold change at or above 0.2?
Response: 0 (no)

Query: Can RRIRMRPPRLPRPRPRPLQFPRP be said to have shrunken log2 fold change at or above 0.2?
Response: 1 (yes)

Query: Can RRIRWRPPRLPRPRPRPLTMPRP be said to have shrunken log2 fold change at or above 0.2?
Response: 0 (no)

Query: Can RRIRQRPPRLPRPRPRPMPVPRP be said to have shrunken log2 fold change at or above 0.2?
Response: 0 (no)

Query: Can RRIRFRPPRLPRPRPRPCWQPRP be said to have shrunken log2 fold change at or above 0.2?
Response: 1 (yes)

Query: Can RRIRERPPRLPRPRPRPPMGPRP be said to have shrunken log2 fold change at or above 0.2?
Response: 0 (no)

Query: Can RRIRPRPPRLPRPRPRPHWWPRP be said to have shrunken log2 fold change at or above 0.2?
Response: 1 (yes)

Query: Can RRIRTRPPRLPRPRPRPETLPRP be said to have shrunken log2 fold change at or above 0.2?
Response: 0 (no)

Query: Can RRIRWRPPRLPRPRPRPPLDPRP be said to have shrunken log2 fold change at or above 0.2?
Response: 1 (yes)

Query: Can RRIRTRPPRLPRPRPRPQAWPRP be said to have shrunken log2 fold change at or above 0.2?
Response: 1 (yes)

Query: Can RRIRSRPPRLPRPRPRPISCPRP be said to have shrunken log2 fold change at or above 0.2?
Response: 0 (no)

Query: Can RRIRLRPPRLPRPRPRPSSMPRP be said to have shrunken log2 fold change at or above 0.2?
Response: 0 (no)

Query: Can RRIRSRPPRLPRPRPRPHSMPRP be said to have shrunken log2 fold change at or above 0.2?
Response: 0 (no)

Query: Can RRIRNRPPRLPRPRPRPWVRPRP be said to have shrunken log2 fold change at or above 0.2?
Response: 0 (no)

Query: Can RRIRYRPPRLPRPRPRPRYRPRP be said to have shrunken log2 fold change at or above 0.2?
Response: 0 (no)

Query: Can RRIRVRPPRLPRPRPRPLHYPRP be said to have shrunken log2 fold change at or above 0.2?
Response: 0 (no)

Query: Can RRIRSRPPRLPRPRPRPDQTPRP be said to have shrunken log2 fold change at or above 0.2?
Response: 0 (no)
